Quick list: log10 Ki per entry.
- testTarget: T1, human GLP-1 receptor (human, UniProt P43220 24-463)
- T1 construct: whole, on cells; also called hGLP-1R; hGLP1R
- assayRemarks: [125I]-GLP-1 competition SPA, hGLP-1R membranes
reportedMetric: log10 Ki (log10 of the value in nM)

- binder: "YXEGTXTSDXSIXLDXKAQXTFIXXLIEGGPSSGAPPPS (Aib2; αMeF(2F)6; 4Pal10; αMeL13; Orn16; K17((2-[2-(2-Amino-ethoxy)-ethoxy]-acetyl)2-(γ-Glu)-CO-(CH2)16-CO2H); Aib20; D-Glu24; αMeY25; C-terminal NH2) [Example 239]"
  reportedMetric: "log10 Ki"
  measuredValue: 0.43
- binder: "YXEGTXTSDYSILLDEKAQXAFIEYLIEGGPSSG (Aib2; αMeF(2F)6; K17((2-[2-(2-Amino-ethoxy)-ethoxy]-acetyl)2-(γ-Glu)-CO-(CH2)16-CO2H); Aib20; C-terminal NH2) [Example 311]"
  reportedMetric: "log10 Ki"
  measuredValue: 1.06
- binder: "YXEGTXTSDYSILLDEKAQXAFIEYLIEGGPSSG (Aib2; αMeF6; K17((2-[2-(2-Amino-ethoxy)-ethoxy]-acetyl)2-(γ-Glu)-CO-(CH2)16-CO2H); Aib20; C-terminal NH2) [Example 307]"
  reportedMetric: "log10 Ki"
  measuredValue: 0.71
- binder: "YXEGTXTSDYSILLDEKAQXEFIXYLIEGGPSSGAPPPS (Aib2; αMeF(2F)6; K17((2-[2-(2-Amino-ethoxy)-ethoxy]-acetyl)2-(γ-Glu)-CO-(CH2)18-CO2H); Aib20; D-Glu24; C-terminal NH2) [Example 226]"
  reportedMetric: "log10 Ki"
  measuredValue: 0.61
- binder: "YXEGTXTSDYSILLDKKAQXAFIEYLIEGGPSSGAPPPS (Aib2; αMeF(2F)6; K17((2-[2-(2-Amino-ethoxy)-ethoxy]-acetyl)2-(γ-Glu)-CO-(CH2)18-CO2H); Aib20; C-terminal NH2) [Example 325]"
  reportedMetric: "log10 Ki"
  measuredValue: -0.32
- binder: "YXEGTXTSDXSILLDXKAQXEFIXYLIEGGPSSGAPPPS (Aib2; αMeF(2F)6; 4Pal10; Dab16; K17((2-[2-(2-Amino-ethoxy)-ethoxy]-acetyl)2-(γ-Glu)-CO-(CH2)16-CO2H); Aib20; D-Glu24; C-terminal NH2) [Example 234]"
  reportedMetric: "log10 Ki"
  measuredValue: 1.04
- binder: "YXEGTXTSDASIXLDXKAQXEFIXXLIEGGPSSGAPPPS (Aib2; αMeF(2F)6; αMeL13; Orn16; K17((2-[2-(2-Amino-ethoxy)-ethoxy]-acetyl)2-(γ-Glu)-CO-(CH2)16-CO2H); Aib20; D-Glu24; αMeY25; C-terminal NH2) [Example 237]"
  reportedMetric: "log10 Ki"
  measuredValue: 0.02
- binder: "YXEGTXTSDXSIXLDXKAQXAFIXXLIEGGPSSGAPPPS (Aib2; αMeF(2F)6; 4Pal10; αMeL13; Orn16; K17((2-[2-(2-Amino-ethoxy)-ethoxy]-acetyl)2-(γ-Glu)-CO-(CH2)16-CO2H); Aib20; D-Glu24; αMeY25; C-terminal NH2) [Example 240]"
  reportedMetric: "log10 Ki"
  measuredValue: -0.26
- binder: "YXEGTFTSDYSIXLDKKAQXAFIEYLIAGGPSSGAPPPS (Aib2; αMeL13; K17((2-[2-(2-Amino-ethoxy)-ethoxy]-acetyl)2-(γ-Glu)-CO-(CH2)18-CO2H); Aib20; C-terminal NH2) [Example 324]"
  reportedMetric: "log10 Ki"
  measuredValue: -0.22
- binder: "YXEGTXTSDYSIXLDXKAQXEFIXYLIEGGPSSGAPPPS (Aib2; αMeF(2F)6; αMeL13; Dab16; K17((2-[2-(2-Amino-ethoxy)-ethoxy]-acetyl)2-(γ-Glu)-CO-(CH2)18-CO2H); Aib20; D-Glu24; C-terminal NH2) [Example 217]"
  reportedMetric: "log10 Ki"
  measuredValue: 0.31
- binder: "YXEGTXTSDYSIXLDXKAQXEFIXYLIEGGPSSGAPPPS (Aib2; αMeF(2F)6; αMeL13; Dap16; K17((2-[2-(2-Amino-ethoxy)-ethoxy]-acetyl)2-(γ-Glu)-CO-(CH2)18-CO2H); Aib20; D-Glu24; C-terminal NH2) [Example 218]"
  reportedMetric: "log10 Ki"
  measuredValue: 0.40
- binder: "YXEGTXTSDXSIXLDXKAQXEFIXYLIEGGPSSGAPPPS (Aib2; αMeF(2F)6; 4Pal10; αMeL13; Dab16; K17((2-[2-(2-Amino-ethoxy)-ethoxy]-acetyl)2-(γ-Glu)-CO-(CH2)16-CO2H); Aib20; D-Glu24; C-terminal NH2) [Example 233]"
  reportedMetric: "log10 Ki"
  measuredValue: 0.78
- binder: "YXEGTXTSDXSIXLDXKAQXEFIXXLIEGG (Aib2; αMeF(2F)6; 4Pal10; αMeL13; Orn16; K17((2-[2-(2-Amino-ethoxy)-ethoxy]-acetyl)2-(γ-Glu)-CO-(CH2)16-CO2H); Aib20; D-Glu24; αMeY25; C-terminal NH2) [Example 265]"
  reportedMetric: "log10 Ki"
  measuredValue: -0.27
- binder: "XXEGTFTSDYSIXLDKKAQXAFIXYLIEGGPSSGAPPPS (D-Tyr1; Aib2; αMeL13; K17((2-[2-(2-Amino-ethoxy)-ethoxy]-acetyl)2-(γ-Glu)-CO-(CH2)18-CO2H); Aib20; D-Glu24; C-terminal NH2) [Example 356]"
  reportedMetric: "log10 Ki"
  measuredValue: 1.01
- binder: "YXEGTXTSDYSILLDKKAQXAFIEYLIAGGPSSG (Aib2; αMeF(2F)6; K17((2-[2-(2-Amino-ethoxy)-ethoxy]-acetyl)2-(γ-Glu)-CO-(CH2)16-CO2H); Aib20; C-terminal NH2) [Example 313]"
  reportedMetric: "log10 Ki"
  measuredValue: -0.09
- binder: "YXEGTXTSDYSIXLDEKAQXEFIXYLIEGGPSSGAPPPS (Aib2; αMeF(2F)6; αMeL13; K17((2-[2-(2-Amino-ethoxy)-ethoxy]-acetyl)2-(γ-Glu)-CO-(CH2)16-CO2H); Aib20; D-Glu24; C-terminal NH2) [Example 221]"
  reportedMetric: "log10 Ki"
  measuredValue: 0.25
- binder: "XXEGTFTSDYSIXLDXKAQXEFVEYLIAGGPSSGAPPPS (D-Tyr1; Aib2; αMeL13; Orn16; K17((2-[2-(2-Amino-ethoxy)-ethoxy]-acetyl)2-(γ-Glu)-CO-(CH2)18-CO2H); Aib20; C-terminal NH2) [Example 359]"
  reportedMetric: "log10 Ki"
  measuredValue: 0.41
- binder: "YXEGTFTSDYSIXLDKKAQXEFIEYLIAGGPSSG (Aib2; αMeL13; K17((2-[2-(2-Amino-ethoxy)-ethoxy]-acetyl)2-(γ-Glu)-CO-(CH2)16-CO2H); Aib20; C-terminal NH2) [Example 306]"
  reportedMetric: "log10 Ki"
  measuredValue: 0.46
- binder: "XXEGTFTSDYSIXLDXKAQXEFIXYLIAGGPSSGAPPPS (D-Tyr1; Aib2; αMeL13; Orn16; K17((2-[2-(2-Amino-ethoxy)-ethoxy]-acetyl)2-(γ-Glu)-CO-(CH2)18-CO2H); Aib20; D-Glu24; C-terminal NH2) [Example 354]"
  reportedMetric: "log10 Ki"
  measuredValue: 0.89
- binder: "YXEGTFTSDYSIXLDKKAQXEFIEXLIAGGPSSGAPPPS (Aib2; αMeL13; K17((2-[2-(2-Amino-ethoxy)-ethoxy]-acetyl)2-(γ-Glu)-CO-(CH2)18-CO2H); Aib20; αMeY25; C-terminal NH2) [Example 367]"
  reportedMetric: "log10 Ki"
  measuredValue: -0.09
- binder: "YXEGTFTSDYSIXLDEKAQXEFIEYLIAGGPSSGAPPPS (Aib2; αMeL13; K17((2-[2-(2-Amino-ethoxy)-ethoxy]-acetyl)2-(γ-Glu)-CO-(CH2)18-CO2H); Aib20; C-terminal NH2) [Example 331]"
  reportedMetric: "log10 Ki"
  measuredValue: 1.06
- binder: "YXEGTFTSDYSIXLDKKAQXEFIEYLIEGGPSSGAPPPS (Aib2; αMeL13; K17((2-[2-(2-Amino-ethoxy)-ethoxy]-acetyl)2-(γ-Glu)-CO-(CH2)18-CO2H); Aib20; C-terminal NH2) [Example 333]"
  reportedMetric: "log10 Ki"
  measuredValue: 0.63
- binder: "YXEGTXTSDVSIXLDXKAQXAFIXXLIEGGPSSGAPPPS (Aib2; αMeF(2F)6; αMeL13; Orn16; K17((2-[2-(2-Amino-ethoxy)-ethoxy]-acetyl)2-(γ-Glu)-CO-(CH2)16-CO2H); Aib20; D-Glu24; αMeY25; C-terminal NH2) [Example 242]"
  reportedMetric: "log10 Ki"
  measuredValue: -0.07
- binder: "YXEGTXTSDYSIXLDHKAQXEFIXYLIEGGPSSGAPPPS (Aib2; αMeF(2F)6; αMeL13; K17((2-[2-(2-Amino-ethoxy)-ethoxy]-acetyl)2-(γ-Glu)-CO-(CH2)18-CO2H); Aib20; D-Glu24; C-terminal NH2) [Example 230]"
  reportedMetric: "log10 Ki"
  measuredValue: 0.67
- binder: "YXEGTXTSDLSIXLDXKAQXAFIXXLIEGGPSSGAPPPS (Aib2; αMeF(2F)6; αMeL13; Orn16; K17((2-[2-(2-Amino-ethoxy)-ethoxy]-acetyl)2-(γ-Glu)-CO-(CH2)16-CO2H); Aib20; D-Glu24; αMeY25; C-terminal NH2) [Example 244]"
  reportedMetric: "log10 Ki"
  measuredValue: -0.09
